Test system: MDA-MB-231 cells
measurement description: Vacuolation of MDA-MB-231 cells caused by inhibition of compounds on PIKfyve (microscopy); note: key: '+' represents the degree of vacuolation; ++: more '+' indicates more obvious vacuolation; +++: more '+' indicates more obvious vacuolation; ++++: more '+' indicates more obvious vacuolation; '−' represents no vacuolation
Type: cell-based
assay setup: MDA-MB-231 cells, 1 μM, 48 h
quantity measured: degree of vacuolation, 1 μM, 48 h

# molecular string, result
rows = [
    ("Cc1ccnc(Nc2nc(-c3cccc(NC(=O)c4cccc(C(F)(F)F)c4)c3)nc3ccsc23)c1", "+"),
    ("Cc1ccc(C(=O)Nc2cccc(C(F)(F)F)c2)cc1Nc1nc(-c2cccnc2)nc2[nH]ccc12", "+"),
    ("Cc1ccc(NC(=O)c2cccc(C(F)(F)F)c2)cc1Nc1cc(-c2cccnc2)nc2sccc12", "++"),
    ("Cc1ccc(C(=O)Nc2ccc(CN3CCN(C)CC3)c(C(F)(F)F)c2)cc1Nc1nc(-c2ccncc2)nc2cc[nH]c12", "++"),
    ("Cc1cccc(NC(=O)c2ccc(C)c(Nc3cc(-c4cccnc4)nc4[nH]ccc34)c2)c1", "++"),
    ("Cc1ccc(Nc2nc(-c3cccc(NC(=O)c4ccc(N)nc4)c3)nc3ccsc23)cn1", "+"),
    ("Cc1ccc(C(=O)Nc2cccc(C(F)(F)F)c2)cc1Nc1nc(-c2cccnc2)c2[nH]ccc2n1", "++"),
    ("O=C(Nc1cccc(C(F)(F)F)c1)c1cccc(Nc2cc(-c3cccnc3)nc3sccc23)c1", "+"),
]
